Assay: NCI Yeast Anticancer Drug Screen. Data for the mec2-1 strain (AID 157)
Settings: S. cerevisiae mec2-1 strain, at 50.0 µM, active compounds read high
Compounds without any hit were thinned out: in the full panel of roughly 79,000, 15% have a hit.
METRIC_NAME: growth inhibition (%)
Report the value in % with no unit label.

Example entries begin here.
# COMPOUND, growth inhibition, %
measured = [
    ("CN(C)CCCNc1nnc(NCCCN(C)C)c2[nH]cnc12", -4.2),
    ("CC(C)N1C(=O)c2cccc3c(Br)ccc(c23)C1=O", 99.3),
    ("CCNC1(C(=O)O)CCCCC1", -2.15),
    ("O=[N+]([O-])c1cccc(NSNc2cccc([N+](=O)[O-])c2)c1", 23.9),
    ("Clc1ccccc1/C=C1\\c2ccc(Br)cc2-c2cccc[n+]21", 95.8),
    ("CCCCCCN(CCCCCC)C(=S)N/N=C(\\C)c1ccccn1", 85.5),
]

Data request: Look up growth inhibition: `Clc1ccc(-c2csc3nc(-c4cccs4)nn23)cc1`
Data returned: -16.6

Data request: Look up growth inhibition: `Nc1ccc(S(=O)(=O)O)cc1[N+](=O)[O-]`
Data returned: 3.8

Data request: Look up growth inhibition: `COC1(OC)C(N(C)C)=C(Cl)C(=O)/C1=C/C=O`
Data returned: -10.7

###

Test: NCI Yeast Anticancer Drug Screen. Data for the rad50 strain (AID 155);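 note: 0% = growth of vehicle-only cultures of the same strain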
Conditions: S. cerevisiae rad50 strain growth inhibition; at 50.0 µM; active compounds read high
Procedure: Growth inhibition of yeast strains with defined genetic alterations is measured as a screen for potential anti-cancer activity. Selected strains with alterations in DNA damage repair or cell cycle control were exposed to compounds and growth inhibition was measured relative to vehicle treated controls. The strain used in this assay is rad50
Compounds without any hit were thinned out: in the full panel of roughly 79,000, 15% have a hit.
METRIC_NAME: growth inhibition (%)
Report the value in % with no unit label.

Data request: Look up growth inhibition: `NC(=O)c1ccc(NC=O)cc1`
Data returned: -10.3

Data request: Look up growth inhibition: `O=C(Cn1c2c(c3ccccc31)CCCC2)N1CCCC1`
Data returned: -11.8

Data request: Look up growth inhibition: `CCCNCc1cccc2ccnc(C)c12`
Data returned: 40.9

Data request: Look up growth inhibition: `Cc1cccc(C)c1NC(=O)C(=O)CC(=O)/C=C/c1ccccc1`
Data returned: -14.5

Data request: Look up growth inhibition: `Nc1ccc(S(=O)(=O)OCCOc2ccccc2)cc1`
Data returned: -2.85

Data request: Look up growth inhibition: `CCOc1ccc(/C(Cl)=C(\C=O)c2ccc(OC)c(OC)c2)cc1OCC`
Data returned: -0.1

Data request: Look up growth inhibition: `O=C(O)CCCCCCCCCC(=O)O`
Data returned: -15.1

###

Assay: NCI Yeast Anticancer Drug Screen. Data for the mec2-1 strain (AID 157)
Conditions: S. cerevisiae mec2-1 strain, at 50.0 µM, active compounds read high
About 79,000 compounds went through this panel and 15% of them were active in at least one assay; those are over-represented in the sample as a whole.
METRIC_NAME: growth inhibition (%)
Report the value in % with no unit label.

Example entries begin here.
# MOLECULE, growth inhibition [%]
measured = [
    ("CN(C)C=Nc1cccc2cnccc12", 3.4),
    ("O=C(O)CCCN1CCCCC1", -32.4),
    ("CCCCCc1c(-c2n[nH]c(C)c2CCCCC)n[nH]c1C", -6.05),
    ("O=C(NC1(C(=O)O)CC1c1ccccc1)c1ccccc1 (stereo not drawn)", 21),
    ("Cn1ncc2c(=O)[nH]c(=S)[nH]c21", -4.4),
]

Data request: Look up growth inhibition: CC(C)CCCC(C)C1CCC2C3C(O)CC4CCCCC4(C)C3CCC12C (stereo not drawn)
Data returned: 97.8

Data request: Look up growth inhibition: `N#Cc1ccccc1N=Nc1nc(N)c(C(N)=O)[nH]1`
Data returned: 13.7

Data request: Look up growth inhibition: `CCc1nc(=S)c2cnn(-c3ccccc3)c2[nH]1`
Data returned: 1.1

Data request: Look up growth inhibition: `Nc1[nH]nc2nc3n(c(=O)c12)CCCCC3`
Data returned: 19.7

Data request: Look up growth inhibition: `Cc1cccc(CP(Cc2cccc(C)c2)CC2(Cp3c4ccccc4c4ccccc43)COC2)c1`
Data returned: -0.8

Data request: Look up growth inhibition: `Nc1cnc2c(c1)c(=O)nc1n2CCS1`
Data returned: 9.65

Data request: Look up growth inhibition: NC(CCC(F)(F)F)C(=O)O (stereo not drawn)
Data returned: -7.95

Data request: Look up growth inhibition: `Clc1ccccc1/C=N/N=C/c1ccccc1Cl`
Data returned: -3.95
